SUBJECT OF TEST: TLR2/TLR6 heterodimer
METHOD DESCRIPTION: cell-based or functional assay
Ends that are not written are not given here. Pam2 = S-(2,3-dihydroxypropyl)-cysteine acylated by two palmitic acids (lipo-cysteine)
Assignment: determine reported NF-κB activation for the given binders.
Please give only the number in your answer, with no unit.

Using the record for Pam2-GSHHM [CBLB604] , state its measured NF-κB activation.
0

Using the record for CSKKKK (N-terminal Cys is the R-Pam2 lipoamino acid (S-(2,3-dihydroxypropyl)-cysteine acylated by two palmitic acids, R stereoisomer)) [CBLB601 (R-PAM2C-SKKKK)] , state its measured NF-κB activation.
100

Using the record for GETDKEGKIIRIFDNSF (not fully specified (N-terminus)) [CBLB611] , state its measured NF-κB activation.
0

Using the record for Pam2-GQHHH [CBLB602] , state its measured NF-κB activation.
0

Using the record for GEESN (not fully specified (N-terminus)) [CBLB615] , state its measured NF-κB activation.
200

Using the record for Pam2-FEPPPATTTKSK [CBLB608] , state its measured NF-κB activation.
2

Using the record for QGEESNDK (not fully specified (N-terminus)) [CBLB614] , state its measured NF-κB activation.
200
